# protocolText: Half life in BALB/c mouse at 10 mg/kg, ip measured upto 24 hrs by LC-MS/MS analysis
# Type: ADME, organism-based
# testSettings: in vivo
resultType: half-life (h)
One number for each entry, in h.

Prompt: Would you mind telling me what half-life value was observed for CC(=O)N[C@H](CC(N)=O)C(=O)N[C@@H](C)C(=O)N[C@@H](CC(C)C)C(=O)N[C@@H](CCC(N)=O)C(=O)N[C@H](C(=O)N[C@H](CC(C)C)C(=O)NCC(=O)N[C@@H](Cc1ccccc1)C(=O)N[C@H](CCC(N)=O)C(=O)N[C@@H](CC(C)C)C(=O)N[C@H](C(N)=O)[C@@H](C)O)[C@@H](C)O ?
Completion: 4.62
